- ASSAY DETAILS: in vivo
- STATED CONDITIONS: female, CD1, mouse, po, 10 mg/kg
ASSAY READOUT: Cmax (ng/mL)
Write it as a number; the unit ng/mL goes unstated.

MOLECULE	Cmax / ng/mL
CCc1c(N2CCN(C(=O)c3ncccc3O)CC2)c(=O)n2nc(-c3ccc(CO)s3)nc2n1CC(=O)Nc1ccc(C(F)(F)F)cc1Cl [P9]	695
CCc1c(N2CCN(C(=O)c3ncccc3O)CC2)c(=O)n2nc(-c3cccnc3)nc2n1CC(=O)Nc1ccc(C(F)(F)F)cc1C [A1, reference compound]	584
CCc1c(N2CCN(C(=O)c3ncnc(C)c3O)CC2)c(=O)n2nc(-c3cc4c(s3)COC4)nc2n1CC(=O)Nc1ccc(C(F)(F)F)c2ccoc12 [P57]	4260

Proceeding to the next molecule to report its Cmax.
Please give the documented Cmax of CCc1c(N2CCN(C(=O)c3ncnc(C)c3O)CC2)c(=O)n2nc(-c3cc4c(s3)COC4)nc2n1CC(=O)Nc1ccc(Br)c2ccoc12 [P59]
2850

====

Reported pIC50, WRN enzyme (Homo sapiens).
Scale explanation: pIC50 corresponds to minus log10 of a concentration expressed in moles per litre.

MOLECULE	pIC50
CCc1c(N2CCN(C(=O)c3ncccc3O)CC2)c(=O)n2nc(-c3sccc3N)nc2n1CC(=O)Nc1ccc(C(F)(F)F)cc1Cl	8.43

Param request: pIC50 | system WRN enzyme (Homo sapiens) | item CCc1c(N2CCN(C(=O)c3ncccc3O)CC2)c(=O)n2nc(-c3ccc(C(C)=O)s3)nc2n1CC(=O)Nc1ccc(C(F)(F)F)cc1Cl
8.80

Report value: pIC50, system: WRN enzyme (Homo sapiens), molecule: CCc1c(N2CCN(C(=O)c3ncccc3O)CC2)c(=O)n2nc(-c3cc4cnn(C)c4s3)nc2n1CC(=O)Nc1ccc(C(F)(F)F)cc1Cl
Sequence (Q14191 whole entry): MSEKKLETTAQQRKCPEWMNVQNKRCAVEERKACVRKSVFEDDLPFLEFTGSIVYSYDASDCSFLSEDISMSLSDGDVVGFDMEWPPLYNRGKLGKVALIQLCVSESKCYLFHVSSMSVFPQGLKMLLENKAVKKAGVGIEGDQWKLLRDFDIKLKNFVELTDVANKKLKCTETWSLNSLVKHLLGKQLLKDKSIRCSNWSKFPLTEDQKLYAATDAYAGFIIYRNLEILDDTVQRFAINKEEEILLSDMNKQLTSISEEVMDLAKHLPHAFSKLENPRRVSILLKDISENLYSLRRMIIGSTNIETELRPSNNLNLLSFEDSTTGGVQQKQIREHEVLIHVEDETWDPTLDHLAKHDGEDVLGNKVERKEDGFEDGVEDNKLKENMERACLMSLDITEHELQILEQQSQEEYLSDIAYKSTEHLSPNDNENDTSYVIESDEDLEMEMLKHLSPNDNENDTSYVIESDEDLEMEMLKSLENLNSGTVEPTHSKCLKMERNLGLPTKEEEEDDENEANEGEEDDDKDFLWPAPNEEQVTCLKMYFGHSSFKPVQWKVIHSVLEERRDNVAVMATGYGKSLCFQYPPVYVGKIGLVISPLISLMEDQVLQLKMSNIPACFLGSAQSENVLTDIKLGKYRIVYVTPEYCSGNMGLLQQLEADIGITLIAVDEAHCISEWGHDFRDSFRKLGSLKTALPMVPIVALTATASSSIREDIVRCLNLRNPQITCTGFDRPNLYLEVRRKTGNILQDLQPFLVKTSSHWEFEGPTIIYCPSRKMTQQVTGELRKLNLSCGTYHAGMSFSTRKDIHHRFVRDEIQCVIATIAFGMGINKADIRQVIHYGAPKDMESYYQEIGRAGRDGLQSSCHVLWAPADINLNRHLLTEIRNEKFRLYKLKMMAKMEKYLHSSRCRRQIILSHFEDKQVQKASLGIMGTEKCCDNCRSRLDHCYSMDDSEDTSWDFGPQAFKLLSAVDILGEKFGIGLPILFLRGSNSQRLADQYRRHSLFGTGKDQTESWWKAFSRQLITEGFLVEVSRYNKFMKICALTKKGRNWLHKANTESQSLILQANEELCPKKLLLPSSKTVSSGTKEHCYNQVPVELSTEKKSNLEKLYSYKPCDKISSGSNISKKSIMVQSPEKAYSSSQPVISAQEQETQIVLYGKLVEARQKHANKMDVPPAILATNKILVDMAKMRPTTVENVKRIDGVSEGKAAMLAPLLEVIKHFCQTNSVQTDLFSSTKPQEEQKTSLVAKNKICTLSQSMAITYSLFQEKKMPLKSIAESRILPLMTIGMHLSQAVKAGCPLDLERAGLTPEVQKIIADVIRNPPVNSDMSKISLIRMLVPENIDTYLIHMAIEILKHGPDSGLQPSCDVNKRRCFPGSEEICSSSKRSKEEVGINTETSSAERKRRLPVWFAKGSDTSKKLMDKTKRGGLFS
8.68

Under WRN enzyme (Homo sapiens): report pIC50 of CCc1c(N2CCN(C(=O)c3ncccc3O)CC2)c(=O)n2nc(-c3cc4ccncc4s3)nc2n1CC(=O)Nc1ccc(C(F)(F)F)cc1Cl .
8.64

Provide the reported pIC50 (system: WRN enzyme (Homo sapiens)) for CCc1c(N2CC[C@@H](NC(=O)c3ncnc(C)c3O)C2)c(=O)n2nc(C3=CCOCC3)nc2n1CC(=O)Nc1ccc(C(F)(F)F)cc1Cl [P2]
8.64

For WRN enzyme (Homo sapiens), give the measured pIC50 of the entry CCc1c(N2CCN(C(=O)c3ncccc3O)CC2)c(=O)n2nc(-c3cnc(C(C)=O)s3)nc2n1CC(=O)Nc1ccc(C(F)(F)F)cc1Cl
8.03

====

- ASSAY DETAILS: in vivo
- STATED CONDITIONS: female, CD1, mouse, po, 10 mg/kg
ASSAY READOUT: AUC(0-t) (ng·h/mL)
Use ng·h/mL as the unit, but write only the number.

COMPOUND	UNIT DESCRIPTOR	OBSERVED MEASUREMENT
CCc1c(N2CCN(C(=O)c3ncccc3O)CC2)c(=O)n2nc(-c3cccnc3)nc2n1CC(=O)Nc1ccc(C(F)(F)F)cc1C [A1, reference compound]	ng·h/mL	801
CCc1c(N2CCN(C(=O)c3ncnc(C)c3O)CC2)c(=O)n2nc(-c3cc4c(s3)COC4)nc2n1CC(=O)Nc1ccc(Br)c2ccoc12 [P59]	ng·h/mL	6070
CCc1c(N2CCN(C(=O)c3ncccc3O)CC2)c(=O)n2nc(-c3ccc(CO)s3)nc2n1CC(=O)Nc1ccc(C(F)(F)F)cc1Cl [P9]	ng·h/mL	1520

Next, consider the following compound.
Using the record for CCc1c(N2CCN(C(=O)c3ncnc(C)c3O)CC2)c(=O)n2nc(-c3cc4c(s3)COC4)nc2n1CC(=O)Nc1ccc(C(F)(F)F)c2ccoc12 [P57] , state its measured AUC(0-t).
8930
